tested on: IL-1β induced E-selectin expression; assay: Inhibition of IL-1β induced E-selectin (SELE) mRNA expression in primary HUVEC, real time PCR; assay type: cell-based, human; conditions: HUVEC pre-incubated 30 min with compound, then 5 ng/mL IL-1β for 90 min; SELE mRNA normalized to GAPDH; at least three independent experiments
Lab note: compare EC [μM] (effective concentration) with 60 µM, writing YES if less and NO if equal or more.

In [3]: df
Out[3]:
                                   compound                        target_entity  assigned_class
0                         O=Cc1ccc(O)c(O)c1  IL-1β induced E-selectin expression              NO
1  O=C(O[C@H](Cc1ccc(O)c(O)c1)C(=O)O)c1cc(-c2ccc(O)c(O)c2)c2cc(O)c(O)cc2c1  IL-1β induced E-selectin expression             YES
2               CCOC(=O)/C=C/c1ccc(O)c(O)c1  IL-1β induced E-selectin expression              NO
3  CC(C)=CCc1cc(C(=O)O)ccc1O[C@@H]1O[C@H](CO)[C@@H](O)C(O)[C@H]1O (some centres unmarked)  IL-1β induced E-selectin expression              NO
4  CCOC(=O)c1cc2cc(O)c(O)cc2c2c1c(=O)oc1cc(O)c(O)cc12  IL-1β induced E-selectin expression             YES
